Measured values drawn from paper PMC10492782 for this set.

System: E. coli strain UZ_TEM104
Details: broth microdilution, MHB, overnight 37 °C, peptide alone
Source text: Pept-Ins consist of a tandem repeat of the APR, each instance flanked by charged amino acids for solubility and separated by a short peptide linker[20],[21],[24] (Fig. 3A). Previous work has shown that good bacterial uptake can be achieved using one positively charged arginine residue on the N-terminal side of each APR in the tandem and two arginine residues on the C-terminal side[20],[21]. […]
PROPERTY MEASURED: MIC peptide

Ac-RSVIIWSLGRRPRSVIIWSLGRR-NH2 [BGAL] : > 100 µg/mL
Ac-RLLTLASRRPRLLTLASRR-NH2 [TEM4.0] : 100 µg/mL
Ac-RGIIAALGRRPRGIIAALGRR-NH2 [TEM6.0] : >100 µg/mL
Ac-RLLLTTIGRRPRLLLTTIGRR-NH2 [TEM2.0] : >100 µg/mL

q: Entry Ac-RLTAFLHNRRPRLTAFLHNRR-NH2 [TEM3.0] : reported MIC peptide = ?
a: >100 µg/mL

q: Entry Ac-RIVVIYTTRRPRIVVIYTTRR-NH2 [TEM7.0] : reported MIC peptide = ?
a: >100 µg/mL

q: Entry Ac-RAGWFIARRPRAGWFIARR-NH2 [TEM5.0] : reported MIC peptide = ?
a: 100 µg/mL

----------
Tested on: E. coli
Type: cell-based, Escherichia coli
Conditions: E.coli TEM104; Suppl. Figure 5; Replicate2
Each entry below carries its reported FICi values.
Keep it simple and answer with nothing but the number.

q: Find FICi values (E. coli) for the entry Ac-RLTPFPHNRRPRLTPFPRQRR-NH2 [Pro4]
a: 2

----------
Test system: E. coli TEM-30; note: key: S: susceptible; I: intermediate; R: resistant
Format: cell-based, Escherichia coli
Settings: E. coli TEM-30
PROPERTY MEASURED: Interoretation

CN(C)c1cc(NC(=O)CNC(C)(C)C)c(O)c2c1C[C@H]1C[C@H]3[C@H](N(C)C)C(O)=C(C(N)=O)C(=O)[C@@]3(O)C(O)=C1C2=O [Tigecycline] : I
CC(C)(O/N=C(\C(=O)N[C@@H]1C(=O)N2C(C(=O)[O-])=C(C[n+]3ccccc3)CS[C@H]12)c1csc(N)n1)C(=O)O [Ceftazidime] : *I
NC[C@H]1O[C@H](O[C@H]2[C@H](O)[C@@H](O[C@H]3O[C@H](CO)[C@@H](O)[C@H](N)[C@H]3O)[C@H](N)C[C@@H]2N)[C@H](N)C[C@@H]1O [Tobramycin] : *R

----------
Test system: E. coli TEM-30; note: key: S: susceptible; I: intermediate; R: resistant
Format: cell-based, Escherichia coli
Settings: E. coli TEM-30
PROPERTY MEASURED: Interoretation

Here is how some compounds turned out for Interoretation.
CO/N=C(\C(=O)N[C@@H]1C(=O)N2C(C(=O)OC(C)OC(C)=O)=C(COC(N)=O)CS[C@H]12)c1ccco1 (some centres unmarked) [Cefuroxime Axetil] : R
CO[C@@]1(NC(=O)C(C(=O)O)c2ccsc2)C(=O)N2[C@@H](C(=O)O)C(C)(C)S[C@@H]21 (some centres unmarked) [Temocillin] : S
CC1(C)S[C@@H]2[C@H](NC(=O)[C@H](N)c3ccccc3)C(=O)N2[C@H]1C(=O)O [Ampicillin] : R
CO/N=C(\C(=O)N[C@@H]1C(=O)N2C(C(=O)O)=C(COC(N)=O)CS[C@H]12)c1ccco1 [Cefuroxime] : R
CO[C@@]1(NC(=O)Cc2cccs2)C(=O)N2C(C(=O)O)=C(COC(N)=O)CS[C@@H]21 [Cefoxitin] : S
NCC[C@H](O)C(=O)N[C@@H]1C[C@H](N)[C@@H](O[C@H]2O[C@H](CN)[C@@H](O)[C@H](O)[C@H]2O)[C@H](O)[C@H]1O[C@H]1O[C@H](CO)[C@@H](O)[C@H](N)[C@H]1O [Amikacin] : S
C[C@H]1COc2c(N3CCN(C)CC3)c(F)cc3c(=O)c(C(=O)O)cn1c23 [Levofloxacin] : R

Let's switch to this compound now.
q: Find Interoretation (E. coli TEM-30) for the entry C[C@@H](O)[C@H]1C(=O)N2C(C(=O)O)=C(S[C@@H]3CN[C@H](C(=O)N(C)C)C3)[C@H](C)[C@H]12 [Meropenem]
a: S
